Reported Tmax is given for each of the following molecules.
type: in vivo, Sprague Dawley rats; conditions: Sprague-Dawley, rat, plasma, po, 100 mg/kg, Tmax, GOS group (1.0 g/d/rat, two weeks); plasma after intragastric ginsenoside Rb1 100 mg/kg; mean ± SE
Write down the numeric answer in h and omit the unit.

Examples with answers:
1) CC(C)=CCC[C@](C)(O[C@@H]1O[C@H](CO[C@@H]2O[C@H](CO)[C@@H](O)[C@H](O)[C@H]2O)[C@@H](O)[C@H](O)[C@H]1O)[C@H]1CC[C@]2(C)[C@@H]1[C@H](O)C[C@@H]1[C@@]3(C)CC[C@H](O[C@@H]4O[C@H](CO)[C@@H](O)[C@H](O)[C@H]4O[C@@H]4O[C@H](CO)[C@@H](O)[C@H](O)[C@H]4O)C(C)(C)[C@@H]3CC[C@]12C [Rb1, ginsenoside Rb1]; 3.2
2) CC(C)=CCC[C@](C)(O[C@@H]1O[C@H](CO)[C@@H](O)[C@H](O)[C@H]1O)[C@H]1CC[C@]2(C)[C@@H]1[C@H](O)C[C@@H]1[C@@]3(C)CC[C@H](O[C@@H]4O[C@H](CO)[C@@H](O)[C@H](O)[C@H]4O[C@@H]4O[C@H](CO)[C@@H](O)[C@H](O)[C@H]4O)C(C)(C)[C@@H]3CC[C@]12C [Rd, ginsenoside Rd]; 6.4

Moving on to the next molecule.
Give the value of Tmax reported for the following: CC(C)=CCC[C@](C)(O[C@@H]1O[C@H](CO)[C@@H](O)[C@H](O)[C@H]1O)[C@H]1CC[C@]2(C)[C@@H]1[C@H](O)C[C@@H]1[C@@]3(C)CC[C@H](O[C@@H]4O[C@H](CO)[C@@H](O)[C@H](O)[C@H]4O)C(C)(C)[C@@H]3CC[C@]12C [F2, ginsenoside F2]
7.6

---

type: in vivo, Sprague Dawley rats; details: 0 to 48 h; FOS group (1.0 g/d/rat, two weeks); plasma after intragastric ginsenoside Rb1 100 mg/kg; mean ± SE
Marks after values point to notes of the source that are not given here.
Reported AUC is given for each of the following compounds.

Examples with answers:
1. CC(C)=CCC[C@](C)(O[C@@H]1O[C@H](CO)[C@@H](O)[C@H](O)[C@H]1O)[C@H]1CC[C@]2(C)[C@@H]1[C@H](O)C[C@@H]1[C@@]3(C)CC[C@H](O[C@@H]4O[C@H](CO)[C@@H](O)[C@H](O)[C@H]4O[C@@H]4O[C@H](CO)[C@@H](O)[C@H](O)[C@H]4O)C(C)(C)[C@@H]3CC[C@]12C [Rd, ginsenoside Rd]; 1616.98 ± 321.59^b ng/ml∗h
2. CC(C)=CCC[C@](C)(O[C@@H]1O[C@H](CO[C@@H]2O[C@H](CO)[C@@H](O)[C@H](O)[C@H]2O)[C@@H](O)[C@H](O)[C@H]1O)[C@H]1CC[C@]2(C)[C@@H]1[C@H](O)C[C@@H]1[C@@]3(C)CC[C@H](O[C@@H]4O[C@H](CO)[C@@H](O)[C@H](O)[C@H]4O[C@@H]4O[C@H](CO)[C@@H](O)[C@H](O)[C@H]4O)C(C)(C)[C@@H]3CC[C@]12C [Rb1, ginsenoside Rb1]; 34494.77 ± 8770.73^bc ng/ml∗h
3. CC(C)=CCC[C@](C)(O[C@@H]1O[C@H](CO)[C@@H](O)[C@H](O)[C@H]1O)[C@H]1CC[C@]2(C)[C@@H]1[C@H](O)C[C@@H]1[C@@]3(C)CC[C@H](O)C(C)(C)[C@@H]3CC[C@]12C; 1056.88 ± 173.22^ab ng/ml∗h

Moving on to the next compound.
Give the value of AUC reported for the following: CC(C)=CCC[C@](C)(O[C@@H]1O[C@H](CO)[C@@H](O)[C@H](O)[C@H]1O)[C@H]1CC[C@]2(C)[C@@H]1[C@H](O)C[C@@H]1[C@@]3(C)CC[C@H](O[C@@H]4O[C@H](CO)[C@@H](O)[C@H](O)[C@H]4O)C(C)(C)[C@@H]3CC[C@]12C [F2, ginsenoside F2]
200.38 ± 41.50^b ng/ml∗h

---

type: in vivo, Sprague Dawley rats; settings: Sprague-Dawley, rat, plasma, po, 100 mg/kg, Tmax, FOS group (1.0 g/d/rat, two weeks); plasma after intragastric ginsenoside Rb1 100 mg/kg; mean ± SE
Property Measured: Tmax (h)
Write down the numeric answer in h and omit the unit.

Examples with answers:
1) CC(C)=CCC[C@](C)(O[C@@H]1O[C@H](CO)[C@@H](O)[C@H](O)[C@H]1O)[C@H]1CC[C@]2(C)[C@@H]1[C@H](O)C[C@@H]1[C@@]3(C)CC[C@H](O[C@@H]4O[C@H](CO)[C@@H](O)[C@H](O)[C@H]4O[C@@H]4O[C@H](CO)[C@@H](O)[C@H](O)[C@H]4O)C(C)(C)[C@@H]3CC[C@]12C [Rd, ginsenoside Rd]; 7.6
2) CC(C)=CCC[C@](C)(O[C@@H]1O[C@H](CO)[C@@H](O)[C@H](O)[C@H]1O)[C@H]1CC[C@]2(C)[C@@H]1[C@H](O)C[C@@H]1[C@@]3(C)CC[C@H](O[C@@H]4O[C@H](CO)[C@@H](O)[C@H](O)[C@H]4O)C(C)(C)[C@@H]3CC[C@]12C [F2, ginsenoside F2]; 8

Give the value of Tmax reported for the following: CC(C)=CCC[C@](C)(O[C@@H]1O[C@H](CO[C@@H]2O[C@H](CO)[C@@H](O)[C@H](O)[C@H]2O)[C@@H](O)[C@H](O)[C@H]1O)[C@H]1CC[C@]2(C)[C@@H]1[C@H](O)C[C@@H]1[C@@]3(C)CC[C@H](O[C@@H]4O[C@H](CO)[C@@H](O)[C@H](O)[C@H]4O[C@@H]4O[C@H](CO)[C@@H](O)[C@H](O)[C@H]4O)C(C)(C)[C@@H]3CC[C@]12C [Rb1, ginsenoside Rb1]
6.3

---

type: in vivo, Sprague Dawley rats; conditions: Sprague-Dawley, rat, plasma, po, 100 mg/kg, Cmax, Fibersol-2 group (1.0 g/d/rat, two weeks); plasma after intragastric ginsenoside Rb1 100 mg/kg; mean ± SE
Property Measured: Cmax (ng/mL)
Write down the numeric answer in ng/mL and omit the unit.

Examples with answers:
1. CC(C)=CCC[C@](C)(O[C@@H]1O[C@H](CO)[C@@H](O)[C@H](O)[C@H]1O)[C@H]1CC[C@]2(C)[C@@H]1[C@H](O)C[C@@H]1[C@@]3(C)CC[C@H](O[C@@H]4O[C@H](CO)[C@@H](O)[C@H](O)[C@H]4O)C(C)(C)[C@@H]3CC[C@]12C [F2, ginsenoside F2]; 35.3
2. CC(C)=CCC[C@](C)(O[C@@H]1O[C@H](CO)[C@@H](O)[C@H](O)[C@H]1O)[C@H]1CC[C@]2(C)[C@@H]1[C@H](O)C[C@@H]1[C@@]3(C)CC[C@H](O[C@@H]4O[C@H](CO)[C@@H](O)[C@H](O)[C@H]4O[C@@H]4O[C@H](CO)[C@@H](O)[C@H](O)[C@H]4O)C(C)(C)[C@@H]3CC[C@]12C [Rd, ginsenoside Rd]; 145

Give the value of Cmax reported for the following: CC(C)=CCC[C@](C)(O[C@@H]1O[C@H](CO[C@@H]2O[C@H](CO)[C@@H](O)[C@H](O)[C@H]2O)[C@@H](O)[C@H](O)[C@H]1O)[C@H]1CC[C@]2(C)[C@@H]1[C@H](O)C[C@@H]1[C@@]3(C)CC[C@H](O[C@@H]4O[C@H](CO)[C@@H](O)[C@H](O)[C@H]4O[C@@H]4O[C@H](CO)[C@@H](O)[C@H](O)[C@H]4O)C(C)(C)[C@@H]3CC[C@]12C [Rb1, ginsenoside Rb1]
3880

---

assay type: in vivo, Sprague Dawley rats; conditions: Sprague-Dawley, rat, plasma, po, 100 mg/kg, Tmax, Fibersol-2 group (1.0 g/d/rat, two weeks); plasma after intragastric ginsenoside Rb1 100 mg/kg; mean ± SE
Property Measured: Tmax (h)
Write down the numeric answer in h and omit the unit.

Examples with answers:
1. CC(C)=CCC[C@](C)(O[C@@H]1O[C@H](CO[C@@H]2O[C@H](CO)[C@@H](O)[C@H](O)[C@H]2O)[C@@H](O)[C@H](O)[C@H]1O)[C@H]1CC[C@]2(C)[C@@H]1[C@H](O)C[C@@H]1[C@@]3(C)CC[C@H](O[C@@H]4O[C@H](CO)[C@@H](O)[C@H](O)[C@H]4O[C@@H]4O[C@H](CO)[C@@H](O)[C@H](O)[C@H]4O)C(C)(C)[C@@H]3CC[C@]12C [Rb1, ginsenoside Rb1]; 1
2. CC(C)=CCC[C@](C)(O[C@@H]1O[C@H](CO)[C@@H](O)[C@H](O)[C@H]1O)[C@H]1CC[C@]2(C)[C@@H]1[C@H](O)C[C@@H]1[C@@]3(C)CC[C@H](O[C@@H]4O[C@H](CO)[C@@H](O)[C@H](O)[C@H]4O)C(C)(C)[C@@H]3CC[C@]12C [F2, ginsenoside F2]; 6.8

Give the value of Tmax reported for the following: CC(C)=CCC[C@](C)(O[C@@H]1O[C@H](CO)[C@@H](O)[C@H](O)[C@H]1O)[C@H]1CC[C@]2(C)[C@@H]1[C@H](O)C[C@@H]1[C@@]3(C)CC[C@H](O[C@@H]4O[C@H](CO)[C@@H](O)[C@H](O)[C@H]4O[C@@H]4O[C@H](CO)[C@@H](O)[C@H](O)[C@H]4O)C(C)(C)[C@@H]3CC[C@]12C [Rd, ginsenoside Rd]
7.6

The measurements presented in this section are drawn from paper PMC8020290.
